# System: NCI-H1944;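 note: CTB read-out in 384-well plates, triplicate wells, NPI normalised per plate against 1 µM phenylarsine oxide (0) and 0.1% DMSO (1) controls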
# method: normalised cell viability (NPI; 0 = phenylarsine oxide control, 1 = DMSO control) (fraction of DMSO control); NCI-H1944 is a non-small cell lung cancer line; higher = more viable cells (less compound toxicity)
# measurement.conditions: glucocorticoid arm: hydrocortisone 2.75 uM co-treatment; compound 5 µM; 6 days
Where a name gives a salt, the structure may show the parent alone. In all, about 1,900 compounds were measured (“normalised cell viability (NPI; 0 = phenylarsine oxide control, 1 = DMSO control)”: median about 1, lowest 2% from about 0.039 on). Many of the other results were omitted from the sample, so the lowest values are more common in it than they were.
measured.parameter: normalised cell viability

Ask | Fill in the blank: the reported normalised cell viability of CCCCN(Cc1ccc(C(=O)NO)cc1)C(=O)Nc1ccccc1 is ____.
Reply | 0.986

Ask | Now give it for Cc1ccc(NC(=O)c2ccc(CN3CCN(C)CC3)cc2)cc1Nc1nccc(-c2cccnc2)n1 [Imatinib Mesylate] too.
Reply | 1.14

Ask | Now give it for CCC[C@H](NC(=O)/C(C#N)=C/c1cccc(Br)n1)c1ccccc1 too.
Reply | 0.726

Ask | Now give it for COC(=O)C(C)(N)Cc1ccc(O)cc1 (racemic) [alpha-Methyl-DL-tyrosine methyl ester hydrochloride] too.
Reply | 1.01

Ask | Now give it for COc1ccc(C(=O)NCc2cccnc2)cc1C(=O)NCc1cccnc1 [Picotamide] too.
Reply | 0.992

Ask | Now give it for CNc1nc(Nc2cnn(C3CCN(C4COC4)CC3F)c2Cl)ncc1C(F)(F)F (configuration not stated) too.
Reply | 1.05

Ask | Now give it for C[C@@H](NC(=O)/C(C#N)=C/c1ccc(O)c(O)c1)c1ccccc1 too.
Reply | 0.996

Ask | Now give it for C[C@H](NC(=O)/C(C#N)=C/c1cccc(Br)n1)c1ccccc1 too.
Reply | 1.06

Ask | Now give it for CC(C)[C@H](C(=O)Nc1ccc(C(=O)NO)cc1)c1ccccc1 too.
Reply | 0.00258

Ask | Now give it for Nc1nccc2c1ncn2[C@@H]1O[C@H](CO)[C@@H](O)[C@H]1O too.
Reply | 0.973

Ask | Now give it for NCCC1CCCC(CCN)N1 (configuration not stated) [MDL 26,630 trihydrochloride] too.
Reply | 0.981

Ask | Now give it for O=C(c1ccc(Nc2nccc(-c3cc4ccccc4s3)n2)cc1)N1CCC(N2CCCC2)CC1 too.
Reply | 0.626

Ask | Now give it for NS(=O)(=O)c1cc(C(=O)O)c(NCc2ccco2)cc1Cl [Furosemide] too.
Reply | 0.998

Ask | Now give it for CN(N=O)C(=O)N[C@@H]1[C@@H](O)[C@H](O)[C@@H](CO)O[C@@H]1O too.
Reply | 1.03

Ask | Now give it for Nc1ccccc1NC(=O)c1ccc(CNc2nccc(-c3cccnc3)n2)cc1 too.
Reply | 0.00494

Ask | Now give it for CCN1CCN(Cc2ccc(-c3cc4c(N[C@H](C)c5ccccc5)ncnc4[nH]3)cc2)CC1 too.
Reply | 0.693

Ask | Now give it for CCCCC1(C2CCCC2)Cc2cc(OCC(=O)O)c(Cl)c(Cl)c2C1=O (stereo in doubt) [R(+)-Butylindazone] too.
Reply | 0.958

Ask | Now give it for O=C(CCCCCCNC(=O)c1cnc(N(c2ccccc2)c2ccccc2)nc1)NO too.
Reply | 0.966

Ask | Now give it for N#C[C@@H]1CCCN1C(=O)CNC12CC3CC(CC(O)(C3)C1)C2 too.
Reply | 1

Ask | Now give it for Cc1ccc(NC(=O)c2ccc(CN3CCN(C)CC3)cc2)cc1Nc1nccc(-c2cccnc2)n1 [Imatinib (Gleevec)] too.
Reply | 1.14

Ask | Now give it for OC(CCN1CCCCC1)(c1ccccc1)C1CCCCC1 (racemic) [DL-Trihexyphenidyl hydrochloride] too.
Reply | 0.998

Ask | Now give it for CC[n+]1c(/C=C/C=C2/N(C)c3ccccc3C2(C)C)sc2ccccc21 too.
Reply | 0.434

Ask | Now give it for Cc1cc(NC(=O)c2cccc(NC(=O)/C=C/CN(C)C)c2)ccc1Nc1nccc(-c2cccnc2)n1 too.
Reply | 0.943

Ask | Now give it for Cc1c(NC(=O)c2ccc(C(C)(C)C)cc2)cccc1-c1cn(C)c(=O)c(Nc2ccc(C(=O)N3CCOCC3)cc2)n1 too.
Reply | 1.03

Ask | Now give it for Nc1nc2c(nc(Br)n2C2OC3COP(=O)(O)O[C@@H]3C2O)c(=O)[nH]1 (some centres not stated) [8-Bromo-cGMP sodium] too.
Reply | 1.02

Ask | Now give it for O=C1c2ccccc2C(=O)c2c(NCCc3ccc(O)cc3)ccc(NCCc3ccc(O)cc3)c21 too.
Reply | 1.02

Ask | Now give it for Cn1c(=O)c2nc[nH]c2n(C)c1=O too.
Reply | 1.01

Ask | Now give it for CN/C(=N\c1ccc(C2=NNC(=O)CC2C)cc1)NC#N (configuration not stated) too.
Reply | 0.992

Ask | Now give it for CC[C@]1(O)C[C@@H]2CN(CCc3c([nH]c4ccccc34)[C@@](C(=O)OC)(c3cc4c(cc3OC)N(C)[C@H]3[C@@](O)(C(=O)OC)[C@H](OC(C)=O)[C@]5(CC)C=CCN6CC[C@]43[C@@H]65)C2)C1 [Vinblastine sulfate salt; Vinblastine sulfate] too.
Reply | 1.02

Ask | Now give it for COc1ccc2cc(-c3nc(-c4ccc([S+](C)[O-])cc4)[nH]c3-c3ccncc3)ccc2c1 (configuration not stated) too.
Reply | 1

Ask | Now give it for CC(C)(C)c1ccc(C(O)CCCN2CCC(C(O)(c3ccccc3)c3ccccc3)CC2)cc1 (configuration not stated) too.
Reply | 0.983

Ask | Now give it for COc1ccc(CCN(C)CCCC(C#N)(c2cc(OC)c(OC)c(OC)c2)C(C)C)cc1OC (racemic) [(±)-Methoxyverapamil hydrochloride] too.
Reply | 0.998

Every entry's value here was drawn from the supplement of paper PMC8285479.
